# assay-system: Protein arginine N-methyltransferase 1 (Homo sapiens)
# test-description: human PRMT1 activity-probe blockers – biochemical, fluorescence polarization, primary screen (AID 652257)
# applied-conditions: recombinant PRMT1, activity-based probe fluorescence polarization; at 2.79 µM
Hit rate of the full screen: of about 370,000 compounds, about 4,800 (1.3%) were called active.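 The calls were made as follows: active = inhibition above about 21% made by adding two undisclosed values (limit read from the data); inactive = the rest.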 The sample holds actives, similar compounds and a random draw of the others, so the mix is not that of the screen.
Give one outcome, nothing more. List: 1 (active), 0 (inactive)

Status in this test for CNc1cncc(-c2ccc(NS(C)(=O)=O)cc2)n1 ?
0

Just curious, what result did COC(=O)[C@]12C[C@H](CC(=O)N3CCOCC3)C(=O)N(Cc3ccc(Cl)cc3Cl)C1=C[C@H](C(C)C)O[C@@H]2C1CC1 get here?
0

Test call for this molecule, please: NC(=O)c1c(Nc2nc3c(F)cccc3s2)sc2c1CCCC2
1

How did this test come out for O=C(NCCc1ccc(Cl)cc1Cl)c1cc([N+](=O)[O-])c[nH]c1=O ?
0

# fetch the recorded call for Clc1ccccc1CSc1nnc(-c2ccco2)c(-c2ccco2)n1 here
1
